Reference for the values: patent US9771333B2

# testTarget: human Tyro3 (Homo sapiens)
# Construct: GST (N)
# Sequence (Q06418 455-890 limits assumed): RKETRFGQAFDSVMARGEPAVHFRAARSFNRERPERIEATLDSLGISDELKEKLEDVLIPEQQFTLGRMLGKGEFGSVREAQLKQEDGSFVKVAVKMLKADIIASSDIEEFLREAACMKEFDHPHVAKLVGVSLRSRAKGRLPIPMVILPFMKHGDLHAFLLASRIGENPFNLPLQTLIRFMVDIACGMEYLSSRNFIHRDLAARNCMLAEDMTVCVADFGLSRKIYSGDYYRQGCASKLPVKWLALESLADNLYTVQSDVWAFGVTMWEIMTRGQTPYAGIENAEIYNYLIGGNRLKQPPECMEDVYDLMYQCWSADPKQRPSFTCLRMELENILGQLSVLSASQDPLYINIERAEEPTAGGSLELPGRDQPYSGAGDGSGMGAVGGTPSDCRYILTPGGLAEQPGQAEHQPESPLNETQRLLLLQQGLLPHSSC
# experimentalProtocol: Kinase enzymatic activity assay (33P-radiolabeled phosphate transfer), Tyro3
# studyConditions: recombinant human Tyro3 (455-end), poly(4:1 glu:tyr) substrate, 30 minutes
valueKind: IC50

Example results:
| compoundString | IC50 |
| --- | --- |
| FC(F)(F)c1csc(Nc2ncnc3cc(OCCN4CCCCC4)cc(OC4CCOCC4)c23)n1 | > 10 µM |
| Fc1ccc(Oc2ncnc3cc(OCCCN4CCOCC4)cc(N4CCOCC4)c23)c(Cl)c1 | 1 to 10 µM |
| CN(C)CCCOc1cc(OC2CCOCC2)c2c(Nc3nc(C(F)(F)F)cs3)ncnc2c1 | > 10 µM |
| CN1CCC(COc2cc(OC3CCOCC3)c3c(Nc4nccs4)ncnc3c2)CC1 | 0.5 to 1 µM |
| COCCOc1cc(OCCN2CCN(C)CC2)cc2ncnc(Sc3ccc(Cl)cc3Cl)c12 | 1 to 10 µM |

Record IC50 for all entries; do not skip any.
1. Cc1nnc(Sc2ncnc3cc(OCC4CCN(C)CC4)cc(OC4CCOCC4)c23)s1
2. COCCOc1cc(OCCN2CCN(C)CC2)cc2ncnc(Sc3ccc(Cl)cc3)c12

["> 10 µM", "1 to 10 µM"]

Return IC50 for the following compound: CN1CCC(COc2cc(OC3CCOCC3)c3c(Nc4cc(C(F)(F)F)no4)ncnc3c2)CC1
> 10 µM

----------
# testTarget: human Axl (Homo sapiens)
# Construct: GST (N)
# Sequence (P30530 473-894 limits assumed): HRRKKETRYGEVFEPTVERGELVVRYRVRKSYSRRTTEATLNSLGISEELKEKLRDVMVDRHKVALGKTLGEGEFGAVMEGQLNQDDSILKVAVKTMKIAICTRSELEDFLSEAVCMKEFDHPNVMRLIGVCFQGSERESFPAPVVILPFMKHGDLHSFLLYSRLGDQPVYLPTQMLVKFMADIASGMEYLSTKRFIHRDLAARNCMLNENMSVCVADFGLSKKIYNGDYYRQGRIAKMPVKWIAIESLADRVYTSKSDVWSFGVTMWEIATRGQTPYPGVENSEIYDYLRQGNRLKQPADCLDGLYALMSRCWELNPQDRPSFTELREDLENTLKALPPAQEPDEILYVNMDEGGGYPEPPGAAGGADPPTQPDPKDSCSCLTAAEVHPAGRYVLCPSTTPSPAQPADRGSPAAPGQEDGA
# experimentalProtocol: Kinase enzymatic activity assay (33P-radiolabeled phosphate transfer), Axl
# studyConditions: recombinant human Axl (473-end), poly(4:1 glu:tyr) substrate, 30 minutes
pIC50: −log10 of the molar value.
For each record, write down the corresponding pIC50.

Example results:
| compoundString | resultValue |
| --- | --- |
| CN1CCN(CCOc2cc(OC3CCOCC3)c3c(Oc4ccc(F)cc4Cl)ncnc3c2)CC1 | 5.00 to 6.00 |
| c1csc(Nc2ncnc3cc(OCCCN4CCOCC4)cc(OC4CCOCC4)c23)n1 | > 6.30 |
| COCCN1CCN(c2cc(OC3CCOCC3)c3c(Oc4ccc(F)cc4Cl)ncnc3c2)CC1 | 5.00 to 6.00 |
| CN1CCC(COc2cc(OC3CCOCC3)c3c(Nc4cc(C(F)(F)F)no4)ncnc3c2)CC1 | 6.00 to 6.30 |
| CN1CCN(CCOc2cc(OC3CCOCC3)c3c(Oc4cccc(CC(=O)NCc5ccccc5)c4)ncnc3c2)CC1 | 5.00 to 6.00 |
| CN1CCN(c2cc(OCCCN3CCOCC3)cc3ncnc(Oc4ccc(F)cc4Cl)c23)CC1 | < 5.00 |

Record pIC50 for all entries; do not skip any.
1. COCCOCCOc1cc(OC2CCOCC2)c2c(Oc3ccc(F)cc3Cl)ncnc2c1
2. COCCOc1cc(OCCN2CCN(C)CC2)cc2ncnc(Sc3ccc(F)c(Br)c3)c12
3. CN1CCC(COc2cc(OC3CCOCC3)c3c(Sc4nc(C(F)(F)F)cs4)ncnc3c2)CC1
4. CN1CCN(CCCOc2cc(OC3CCOCC3)c3c(Oc4ccc(F)cc4Cl)ncnc3c2)CC1

1: < 5.00; 2: 5.00 to 6.00; 3: 6.00 to 6.30; 4: > 6.30
